B1: Azoarcus group I ribozyme (parent)
chain: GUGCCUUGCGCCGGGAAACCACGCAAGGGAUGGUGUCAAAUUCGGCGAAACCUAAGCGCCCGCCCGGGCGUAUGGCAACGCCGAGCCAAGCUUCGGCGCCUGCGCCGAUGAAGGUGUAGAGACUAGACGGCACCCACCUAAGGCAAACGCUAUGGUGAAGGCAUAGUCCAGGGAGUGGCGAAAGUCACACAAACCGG

Variants of: B1
Assay: reverse-splicing fitness (ratio to wild type); higher = more active; in vitro selection; Mg2+ level not given
Everything with reverse-splicing fitness lower than 0.007 is rule not met; everything else, including exactly 0.007, is rule met.

> print(dat)
                                    mutation      category
 1              C82G A111U A145G C150G U176G      rule met
 2        C82G A111C A145G C150A C169A U176C      rule met
 3        C82G A111C A120G C150A C169U U176G  rule not met
 4              C82U A111G A145U C150U U176G      rule met
 5                          C82U A145C C150G      rule met
 6  C82A A111C A120U A145U C150G C169A U176C  rule not met
 7  C82A A111G A120C A145G C150A C169U U176A      rule met
 8              C82A A111U A120G C150A U176A      rule met
 9        C82G A111C A145C C150U C169A U176G      rule met
10                   A111U A120C C150A C169A      rule met
